Target: 5-HT1D sites (Macaca mulatta, UniProt F6SFA9)
Sequence (F6SFA9 1-390): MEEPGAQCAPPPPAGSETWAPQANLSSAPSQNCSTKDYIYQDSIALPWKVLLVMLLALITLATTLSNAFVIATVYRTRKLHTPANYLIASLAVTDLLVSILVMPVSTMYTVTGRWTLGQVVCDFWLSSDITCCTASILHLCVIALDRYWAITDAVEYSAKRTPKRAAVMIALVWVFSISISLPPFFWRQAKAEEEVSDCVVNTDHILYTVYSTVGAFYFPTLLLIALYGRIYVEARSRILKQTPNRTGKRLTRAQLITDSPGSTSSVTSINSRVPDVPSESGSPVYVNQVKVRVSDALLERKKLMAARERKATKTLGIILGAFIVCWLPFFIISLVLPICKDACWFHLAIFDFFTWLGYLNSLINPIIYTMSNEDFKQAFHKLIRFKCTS
measure: IC50

State measured IC50 of the molecule NCCc1c[nH]c2ccc(O)cc12 [5-HT, reference compound] with 5-HT1D sites (Macaca mulatta, UniProt F6SFA9).
~5 nM

* * *

// reported pIC50 for each item listed
Biological target: receptor binding sites with a high affinity for serotonin (5-HT1)
Assay: Displacement, by the derivatives S-CM-R, of the high affinity binding of [3H]5-HT in rat brain sections
Conditions: 2 nM [3H]5-HT, two-phase process, first site, read-out: IC50 for the first site (displacement of [3H]5-HT)
On this scale, pIC50 is minus log10 of a concentration expressed in M (mol/L).

{"columns": ["compound", "pIC50"],
 "data": [
  ["NCCc1c[nH]c2ccc(OCC(=O)N[C@@H](Cc3ccc(O)cc3)C(=O)NCC(N)=O)cc12 [S-CM-Tyr-GlyNH2]", 7.70]
]}

Continue with the compound presented below.
Enter measured pIC50, system receptor binding sites with a high affinity for serotonin (5-HT1), for the compound shown: NCCc1c[nH]c2ccc(OCC(=O)NCC(=O)N[C@@H](Cc3ccc(O)cc3)C(N)=O)cc12 [S-CM-GTNH2]
7.70
